Biological target: Type-1 angiotensin II receptor (Oryctolagus cuniculus)
Sequence (P34976 whole entry): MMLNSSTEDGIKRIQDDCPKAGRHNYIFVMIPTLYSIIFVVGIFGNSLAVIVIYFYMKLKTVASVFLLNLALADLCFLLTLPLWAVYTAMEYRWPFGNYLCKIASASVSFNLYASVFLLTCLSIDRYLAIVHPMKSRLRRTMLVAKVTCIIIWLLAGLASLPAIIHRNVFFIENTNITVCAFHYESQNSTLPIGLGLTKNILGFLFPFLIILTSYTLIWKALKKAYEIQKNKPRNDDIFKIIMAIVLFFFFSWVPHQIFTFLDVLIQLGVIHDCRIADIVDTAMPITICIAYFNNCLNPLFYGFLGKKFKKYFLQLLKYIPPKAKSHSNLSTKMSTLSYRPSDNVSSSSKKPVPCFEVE
Experiment: In vitro antagonist activity against angiotensin II receptor type 1 in rabbit aorta using [125I]-Sar, Ile AII.
pIC50: −log10 of the molar value.
Decide by pIC50: equal to or exceeding 7 means true, less means false.

CCc1nc2c(C)cc(C)nc2n1Cc1ccc(N(CC)C(C(=O)NS(=O)(=O)c2ccccc2)c2ccccc2)cc1 (stereo not drawn) ... true
CCCN(c1ccc(Cn2c(CC)nc3c(C)cc(C)nc32)cc1C)C(C(=O)O)c1ccccc1 (stereo not drawn) ... true
CCc1nc2c(C)cc(C)nc2n1Cc1ccc(NC(C(=O)O)c2cc(C(F)(F)F)cc(C(F)(F)F)c2)cc1 (stereo not drawn) ... false
CCCN(c1ccc(Cn2c(CC)nc3c(C)cc(C)nc32)cc1)C(C(=O)NS(=O)(=O)c1ccccc1)c1ccccc1 (stereo not drawn) ... true
CCc1nc2c(C)cc(C)nc2n1Cc1ccc(N(CC)C(C(=O)O)c2cc(C(F)(F)F)cc(C(F)(F)F)c2)cc1 (stereo not drawn) ... false

Here's the next entry for you.
Ask: Could you please find out whether C=CCN(c1ccc(Cn2c(CC)nc3c(C)cc(C)nc32)cc1C)C(C(=O)O)c1ccccc1 (stereo not drawn) has pIC50 that meets 7 or exceeds it?
Result: true

* * *

Target: Type-2 angiotensin II receptor (Rattus norvegicus)
Sequence (P35351 whole entry): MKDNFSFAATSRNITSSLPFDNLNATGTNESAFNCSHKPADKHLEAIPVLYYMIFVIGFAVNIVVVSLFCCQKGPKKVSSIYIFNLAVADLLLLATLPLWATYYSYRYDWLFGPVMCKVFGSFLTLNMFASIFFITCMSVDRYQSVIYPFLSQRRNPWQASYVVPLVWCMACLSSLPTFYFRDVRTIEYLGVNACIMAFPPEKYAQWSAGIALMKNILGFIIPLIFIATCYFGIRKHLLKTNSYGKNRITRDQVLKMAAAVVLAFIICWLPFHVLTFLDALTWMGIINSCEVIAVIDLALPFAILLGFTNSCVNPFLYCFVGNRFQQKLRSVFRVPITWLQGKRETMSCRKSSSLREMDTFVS
Assay: In vitro antagonist activity against angiotensin II type 2 (AT2) receptor in rat midbrain using [125I]- Sar, Ile AII.
pIC50: −log10 of the molar value.
Catalogue of compounds with associated pIC50

For reference, reported pIC50 for `CCc1nc2c(C)cc(C)nc2n1Cc1ccc(-c2ccccc2-c2nnn[nH]2)cc1` stands at < 5.00

Documented pIC50 of CCc1nc2c(C)cc(C)nc2n1Cc1ccc(N(C)C(C(=O)O)c2cc(F)ccc2F)cc1 (centres undefined) : < 5.00

pIC50 for CCc1nc2c(C)cc(C)nc2n1Cc1ccc(N(CC)C(C(=O)O)c2cc(F)ccc2F)cc1 (centres undefined) is < 5.00

Short answer for CCc1nc2c(C)cc(C)nc2n1Cc1ccc(N(CC(C)C)C(C(=O)O)c2ccccc2)cc1 (centres undefined) : pIC50 was < 6.52

Origin of measurements: ChEMBL document CHEMBL1126574
